assay: Elimination half life in CD-1 mouse at 2 mg/kg, iv; assay type: ADME, organism-based; conditions: in vivo, read-out: beta t1/2 (converted)

>  <molecule>
O=C(NC1CC1)C(=O)C(Cc1ccccc1)NC(=O)[C@H]1CCC(=O)N1Cc1ccccc1 (stereo partly specified)

>  <half-life / h>
6

$$$$

====

assay: Elimination half life in CD-1 mouse at 2 mg/kg, po; type: ADME, organism-based; details: in vivo, read-out: beta t1/2 (converted)

>  <compound>
O=C(NC1CC1)C(=O)C(Cc1ccccc1)NC(=O)[C@H]1CCC(=O)N1Cc1ccccc1 (stereo partly specified)

>  <scale_unit>
min

>  <half-life>
300

$$$$

====

species: Homo sapiens; experiment: Selectivity ratio, ratio of Ki for CatB (unknown origin) to Ki for Cal1 (unknown origin)
Label satisfied for high-side Selectivity ratio (at or above 40) and not satisfied for low-side Selectivity ratio (below it).

>  <compound>
CCNC(=O)C(=O)C(Cc1ccccc1)NC(=O)[C@H]1CCC(=O)N1Cc1ccccc1 (mixture of isomers)

>  <discrete_label>
satisfied

$$$$
>  <compound>
O=C(NC1CCC1)C(=O)C(Cc1ccccc1)NC(=O)[C@H]1CCC(=O)N1Cc1ccccc1 (stereo partly drawn)

>  <discrete_label>
satisfied

$$$$
>  <compound>
COc1cccc(C(F)(F)F)c1CN1C(=O)CC[C@@H]1C(=O)NC(Cc1ccccc1)C(=O)C(N)=O (mixture of isomers)

>  <discrete_label>
satisfied

$$$$
>  <compound>
NC(=O)C(=O)C(Cc1ccccc1)NC(=O)[C@H]1CCC(=O)N1c1ccccc1 (mixture of isomers)

>  <discrete_label>
not satisfied

$$$$
>  <compound>
O=C(NC1CC1)C(=O)C(Cc1ccccc1)NC(=O)[C@H]1CCC(=O)N1Cc1ccccc1 (stereo partly drawn)

>  <discrete_label>
satisfied

$$$$
>  <compound>
NC(=O)C(=O)C(Cc1ccccc1)NC(=O)[C@@H]1CCC(=O)N1Cc1ccccc1 (mixture of isomers)

>  <discrete_label>
not satisfied

$$$$
>  <compound>
O=C(NC1CC1)C(=O)C(Cc1ccccc1)NC(=O)[C@H]1CCC(=O)N1Cc1ccccc1Cl (stereo partly drawn)

>  <discrete_label>
not satisfied

$$$$
>  <compound>
C[C@H]1C[C@H](C(=O)NC(Cc2ccccc2)C(=O)C(N)=O)N(Cc2ccccc2)C1=O (mixture of isomers)

>  <discrete_label>
not satisfied

$$$$

====

experiment: Fraction unbound in human plasma; type: ADME, cell-free
measurement_label: fraction unbound

>  <molecule>
O=C(NC1CC1)C(=O)C(Cc1ccccc1)NC(=O)[C@H]1CCC(=O)N1Cc1ccccc1 (stereo partly specified)

>  <recorded_measurement>
0.3

$$$$

====

test: Volume of distribution at steady state in CD-1 mouse at 2 mg/kg, iv; format: ADME, organism-based; conditions: in vivo, read-out: Vdss
measurement_label: Vd (L/kg)

>  <molecule>
O=C(NC1CC1)C(=O)C(Cc1ccccc1)NC(=O)[C@H]1CCC(=O)N1Cc1ccccc1 (stereo partly specified)

>  <scale_unit>
L/kg

>  <recorded_measurement>
1

$$$$

====

test: Elimination half life in Beagle dog at 1 mg/kg, po; format: ADME, organism-based, Canis lupus familiaris; settings: in vivo, read-out: beta t1/2 (converted)

>  <compound>
O=C(NC1CC1)C(=O)C(Cc1ccccc1)NC(=O)[C@H]1CCC(=O)N1Cc1ccccc1 (stereo partly specified)

>  <half-life [h]>
4.8

$$$$

====

species on record: Homo sapiens; experiment: Selectivity ratio, ratio of Ki for CatB (unknown origin) to Ki for Cal1 (unknown origin)
Measured Selectivity ratio, listed per entry for reference.

>  <compound>
NC(=O)C(=O)C(Cc1ccccc1)NC(=O)[C@H]1CCC(=O)N1Cc1ccccc1OC(F)(F)F (mixture of isomers)

>  <Selectivity ratio>
5

$$$$
>  <compound>
NC(=O)C(=O)C(Cc1ccccc1)NC(=O)[C@H]1CCC(=O)N1Cc1cccc(OC(F)(F)F)c1 (mixture of isomers)

>  <Selectivity ratio>
7

$$$$
>  <compound>
NC(=O)C(=O)C(Cc1ccccc1)NC(=O)[C@H]1CCC(=O)N1Cc1ccccc1C(F)(F)F (mixture of isomers)

>  <Selectivity ratio>
17

$$$$
>  <compound>
O=C(NC1CC1)C(=O)C(Cc1ccccc1)NC(=O)[C@H]1CCC(=O)N1Cc1ccccc1C(F)(F)F (some centres undefined)

>  <Selectivity ratio>
33

$$$$

====

test: Elimination half life in Sprague-Dawley rat at 2 mg/kg, iv; type: ADME, organism-based; conditions: in vivo, read-out: beta t1/2 (converted)
measurement_label: half-life (h)

>  <compound>
O=C(NC1CC1)C(=O)C(Cc1ccccc1)NC(=O)[C@H]1CCC(=O)N1Cc1ccccc1 (stereo partly specified)

>  <measurement_label>
half-life

>  <scale_unit>
h

>  <recorded_measurement>
6.6

$$$$

====

species on record: Homo sapiens; experiment: Selectivity ratio, ratio of Ki for CatL (unknown origin) to Ki for Cal1 (unknown origin)
Measured Selectivity ratio, listed per entry for reference.
measurement_label: Selectivity ratio

>  <compound>
O=C(Nc1ccccc1)C(=O)C(Cc1ccccc1)NC(=O)[C@H]1CCC(=O)N1Cc1ccccc1 (some centres undefined)

>  <measurement_label>
Selectivity ratio

>  <recorded_measurement>
37

$$$$
>  <compound>
O=C(NC1CC1)C(=O)C(Cc1ccccc1)NC(=O)[C@H]1CCC(=O)N1Cc1ccccc1 (some centres undefined)

>  <measurement_label>
Selectivity ratio

>  <recorded_measurement>
42

$$$$
>  <compound>
CC(C)(C)CN1C(=O)CC[C@@H]1C(=O)NC(Cc1ccccc1)C(=O)C(N)=O (mixture of isomers)

>  <measurement_label>
Selectivity ratio

>  <recorded_measurement>
7

$$$$
>  <compound>
O=C(NC1CC1)C(=O)C(Cc1ccccc1)NC(=O)[C@H]1CCC(=O)N1Cc1ccccc1C(F)(F)F (some centres undefined)

>  <measurement_label>
Selectivity ratio

>  <recorded_measurement>
162

$$$$

====

assay: Intrinsic clearance in human liver microsomes; format: ADME, Microsome; conditions: read-out: CLH
Measured microsomal CLint, listed per entry for reference.
measurement_label: microsomal CLint

>  <compound>
O=C(NC1CC1)C(=O)C(Cc1ccccc1)NC(=O)[C@H]1CCC(=O)N1Cc1ccccc1Cl (stereo partly drawn)

>  <measurement_label>
microsomal CLint

>  <recorded_measurement>
< 1 µL/min/mg

$$$$
>  <compound>
O=C1CC[C@H](C(=O)NC(Cc2ccccc2)C(=O)C(=O)NC2CC2)N1 (stereo partly drawn)

>  <measurement_label>
microsomal CLint

>  <recorded_measurement>
< 1 µL/min/mg

$$$$
>  <compound>
CCNC(=O)C(=O)C(Cc1ccccc1)NC(=O)[C@H]1CCC(=O)N1Cc1ccccc1 (mixture of isomers)

>  <measurement_label>
microsomal CLint

>  <recorded_measurement>
< 23 µL/min/mg

$$$$

====

experiment: Oral bioavailability in Sprague-Dawley rat at 2 mg/kg; format: ADME, organism-based; settings: in vivo
measurement_label: bioavailability (%)

>  <compound>
O=C(NC1CC1)C(=O)C(Cc1ccccc1)NC(=O)[C@H]1CCC(=O)N1Cc1ccccc1 (stereo partly specified)

>  <scale_unit>
%

>  <recorded_measurement>
99.6

$$$$

====

assay: AUC (0 to infinity) in cynomolgus monkey at 3 mg/kg, po; assay type: ADME, organism-based, Macaca fascicularis; parameters: dose 3 mg/kg, time infinity, route oral; conditions: in vivo
measurement_label: AUC(0-inf) (ng·h/mL)

>  <compound>
O=C(NC1CC1)C(=O)C(Cc1ccccc1)NC(=O)[C@H]1CCC(=O)N1Cc1ccccc1 (stereo partly specified)

>  <recorded_measurement>
220

$$$$

====

test: Oral bioavailability in Beagle dog at 1 mg/kg; type: ADME, organism-based, Canis lupus familiaris; details: in vivo

>  <compound>
O=C(NC1CC1)C(=O)C(Cc1ccccc1)NC(=O)[C@H]1CCC(=O)N1Cc1ccccc1 (stereo partly specified)

>  <bioavailability [%]>
83.1

$$$$

====

assay: Cmax in cynomolgus monkey at 3 mg/kg, po; assay type: ADME, organism-based, Macaca fascicularis; set-up: dose 3 mg/kg, route oral; conditions: in vivo
measurement_label: Cmax (ng/mL)

>  <compound>
O=C(NC1CC1)C(=O)C(Cc1ccccc1)NC(=O)[C@H]1CCC(=O)N1Cc1ccccc1 (stereo partly specified)

>  <measurement_label>
Cmax

>  <recorded_measurement>
98

$$$$

====

Measured Selectivity ratio, listed per entry for reference.
experiment: Selectivity ratio, ratio of Ki for CatS (unknown origin) to Ki for Cal1 (unknown origin); conditions: Homo sapiens
measurement_label: Selectivity ratio

>  <molecule>
NC(=O)C(=O)C(Cc1ccccc1)NC(=O)C1CCS(=O)(=O)N1Cc1ccccc1 (mixture of isomers)

>  <recorded_measurement>
7

$$$$
>  <molecule>
C[C@H]1C[C@H](C(=O)NC(Cc2ccccc2)C(=O)C(N)=O)N(Cc2ccccc2)C1=O (mixture of isomers)

>  <recorded_measurement>
3

$$$$
>  <molecule>
O=C(NC1CC1)C(=O)C(Cc1ccccc1)NC(=O)[C@H]1CCC(=O)N1Cc1ccccc1 (stereo partly specified)

>  <recorded_measurement>
> 100

$$$$
>  <molecule>
COc1cccc(C(F)(F)F)c1CN1C(=O)CC[C@@H]1C(=O)NC(Cc1ccccc1)C(=O)C(N)=O (mixture of isomers)

>  <recorded_measurement>
395

$$$$
>  <molecule>
NC(=O)C(=O)C(Cc1ccccc1)NC(=O)[C@@H]1CCC(=O)N1Cc1ccccc1 (mixture of isomers)

>  <recorded_measurement>
2

$$$$
>  <molecule>
NC(=O)C(=O)C(Cc1ccccc1)NC(=O)[C@H]1CCC(=O)N1Cc1ccncc1 (mixture of isomers)

>  <recorded_measurement>
35

$$$$
>  <molecule>
NC(=O)C(=O)C(Cc1ccccc1)NC(=O)[C@H]1CCCC(=O)N1Cc1ccccc1 (mixture of isomers)

>  <recorded_measurement>
56

$$$$
>  <molecule>
O=C(NC1CCC1)C(=O)C(Cc1ccccc1)NC(=O)[C@H]1CCC(=O)N1Cc1ccccc1 (stereo partly specified)

>  <recorded_measurement>
130

$$$$
>  <molecule>
Cc1ccc(S(=O)(=O)N2CCC[C@@H]2C(=O)NC(Cc2ccccc2)C(=O)C(N)=O)cc1 (mixture of isomers)

>  <recorded_measurement>
14

$$$$
>  <molecule>
O=C(NC1CC1)C(=O)C(Cc1ccccc1)NC(=O)[C@H]1CCC(=O)N1Cc1ccccc1C(F)(F)F (stereo partly specified)

>  <recorded_measurement>
> 100

$$$$
>  <molecule>
NC(=O)C(=O)C(Cc1ccccc1)NC(=O)[C@H]1CCC(=O)N1Cc1ccccc1C(F)(F)F (mixture of isomers)

>  <recorded_measurement>
524

$$$$
